Data provenance: ChEMBL document CHEMBL1909046

experiment_description: DRUGMATRIX: Serotonin (5-Hydroxytryptamine) 5-HT3 radioligand binding (ligand: [3H] GR-65630)
Type: cell membranes, Membrane
condition_summary: hek293; Not Active = under 50% inhibition at 10 µM
quantity_kind: IC50

Check out these entries, answers already filled in.
compound	IC50
CN1C[C@H](C(=O)N[C@]2(C)O[C@@]3(O)[C@@H]4CCCN4C(=O)[C@H](Cc4ccccc4)N3C2=O)C=C2c3cccc4[nH]cc(c34)C[C@H]21	Not Active
CCOC(=O)OC(C)OC1=C(C(=O)Nc2ccccn2)N(C)S(=O)(=O)c2ccccc21 (stereo unspecified)	Not Active
CN1CCC[C@H]1c1cccnc1	Not Active
CN1C(C(=O)Nc2ccccn2)=C(O)c2ccccc2S1(=O)=O	Not Active
Nc1nnc(-c2cccc(Cl)c2Cl)c(N)n1	Not Active

So, `COc1ccc2c(c1)c(CC(=O)OCC(=O)O)c(C)n2C(=O)c1ccc(Cl)cc1` ? Its IC50 was Not Active

For `COC1=CC(=O)C[C@@H](C)[C@]12Oc1c(Cl)c(OC)cc(OC)c1C2=O` the compound record lists IC50 as Not Active

Form: compound = `C[C@]12CCC(=O)C=C1CC[C@@H]1[C@@H]2C(=O)C[C@@]2(C)[C@H]1CC[C@]2(O)C(=O)CO` ; IC50 = Not Active

Entry CCc1ccc(C(=O)C(C)CN2CCCCC2)cc1 (stereo unspecified) , IC50 reported as Not Active

Entry `Oc1c(I)cc(I)c2cccnc12` , IC50 reported as Not Active
